EXPERIMENTAL TARGET: T1, rat serum albumin (rat, UniProt P02770 25-608)
T1 construct: also called RSA
EXPERIMENT NOTES: SPR, single cycle kinetics, pH 5.5
MEASURED PROPERTY: Kd

| BINDER | REPORTED |
| --- | --- |
| R28-H5 (VHH) VHH: QVQLVESGGGLVQPGGSLRLSCAASGRTFIAYAMGWFRQAPGKEREFVAAITNFAGGTTYYADSVKGRFTISRDNAKTTVYLQMNSLRAEDTAVYYCAADRSAQTMRQVRPVLPYWGQGTLVTVSS | 3.5 nM |
| R28 sdAb (VHH, also called R28 VHH) VHH: QVQLVESGGGLVQAGGSLRLSCVASGRTFIAYAMGWFRQAPGKEREFVAAITNFAGGTTYYADSVKGRFTISRDNAKTTVYLQMNSLKPEDTALYYCAADRSAQTMRQVRPVLPYWGQGTQVTVSS | 0.3 nM |
| R11-H6 (VHH) VHH: QVQLVESGGGLVQPGGSLRLSCAGPGFLLRSNTMGWYRQAPGKERELVAFIRPSGLTNYNDAVQGRFTISRDNAKNTVYLQMNSLRAEDTAVYYCHTRPPFQRDSWGQGTLVTVSS | 123 nM |
| R11-H5 (VHH) VHH: QVQLVESGGGLVQPGGSLRLSCAGPGFLLRSNTMGWYRQAPGKERELVAFIRPSGLTNYNDAVQGRFTISRDNSKNTLYLQMNSLRAEDTAVYYCHTRPPFQRDSWGQGTLVTVSS | 160 nM |
| M79-H2 (VHH) VHH: EVQLVESGGGLVQPGGSLRLSCAASGSTFSSSSVGWYRQAPGKGLELVSAITSGGSTNTADSVKGRFTISRDNSKNTLYLQMNSLRAEDTAVYYCNVAGRNWVPISRYSPGPYWGQGTLVTVSS | 5.9 nM |
| R28-H4 (VHH) VHH: QVQLVESGGGLVQPGGSLRLSCAASGRTFIAYAMGWFRQAPGKEREFVAAITNFAGGTTYYADSVKGRFTISRDNAKTTLYLQMNSLRAEDTAVYYCAADRSAQTMRQVRPVLPYWGQGTLVTVSS | 5.3 nM |
| M79-H4 (VHH) VHH: QVQLVESGGGLVQPGGSLRLSCAASGSTFSSSSVGWYRQAPGQQRELVAAITSGGSTNTADSVKGRFTISRDNSKNTLYLQMNSLRAEDTAVYYCNVAGRNWVPISRYSPGPYWGQGTLVTVSS | 8.8 nM |
| R28-H1 (VHH) VHH: EVQLVESGGGLVQPGGSLRLSCAASGRTFIAYAMGWFRQAPGKGLEFVSAITNFAGGTTYYADSVKGRFTISRDNSKNTLYLQMNSLRAEDTAVYYCAADRSAQTMRQVRPVLPYWGQGTLVTVSS | 6.5 nM |
